Biological target: 2-amino-4-hydroxy-6-hydroxymethyldihydropteridine pyrophosphokinase (Escherichia coli (strain K12))
Sequence (P26281 whole entry): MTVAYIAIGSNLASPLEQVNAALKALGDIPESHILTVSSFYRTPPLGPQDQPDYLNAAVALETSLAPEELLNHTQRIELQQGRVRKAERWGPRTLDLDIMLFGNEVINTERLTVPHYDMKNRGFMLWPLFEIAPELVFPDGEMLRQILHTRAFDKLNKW
Assay: Binding affinity to Escherichia coli HPPK using 6-hydroxymethyl-7,8-dihydropterin as substrate and ATP by fluorometric analysis
Listed below: Kd values for each entry.
Give the number; nM is assumed, so skip it.

1) Nc1nc2ncc(COP(=O)(O)OP(=O)(O)OP(=O)(O)OP(=O)(O)OC[C@H]3O[C@@H](n4cnc5c(N)ncnc54)[C@H](O)[C@@H]3O)nc2c(=O)[nH]1    470

# evaluate next
INPUT: Read the entry `CC1(C)Nc2nc(N)[nH]c(=O)c2N=C1C(=O)NCCN1CCC(SC[C@H]2O[C@@H](n3cnc4c(N)ncnc43)[C@H](O)[C@@H]2O)CC1` and write its reported Kd.
OUTPUT: 2550
